meta.source: patent US20220306765A1

target: human CLDN18.2-mRFP Q47E (human); assay: FACS, transfected HEK293, 10 µg/ml antibody;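 also: antibody binding read by flow cytometry with a FITC-labelled anti-human IgG secondary, gated on RFP-positive cells, each mutant signal expressed against wild-type CLDN18.2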
Sequence (chain, as listed by the source Q47E Q47E limits assumed): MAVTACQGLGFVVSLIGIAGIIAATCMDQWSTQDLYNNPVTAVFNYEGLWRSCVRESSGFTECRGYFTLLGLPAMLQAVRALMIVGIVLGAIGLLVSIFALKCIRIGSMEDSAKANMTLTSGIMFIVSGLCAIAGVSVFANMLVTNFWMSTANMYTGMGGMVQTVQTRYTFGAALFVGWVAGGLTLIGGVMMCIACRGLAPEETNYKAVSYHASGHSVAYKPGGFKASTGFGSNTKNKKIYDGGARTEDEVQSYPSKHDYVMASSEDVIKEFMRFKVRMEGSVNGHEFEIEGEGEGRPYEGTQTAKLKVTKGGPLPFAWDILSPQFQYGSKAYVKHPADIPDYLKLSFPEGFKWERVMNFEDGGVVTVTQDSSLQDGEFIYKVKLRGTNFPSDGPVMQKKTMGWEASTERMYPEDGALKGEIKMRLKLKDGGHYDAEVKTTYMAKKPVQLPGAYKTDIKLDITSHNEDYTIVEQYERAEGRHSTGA
Value Type: binding percentage vs wild-type CLDN18.2 (%)
Answer with a number only, understood to be in %.

Would you please look over these solved cases?
Binder: 7C12-C (antibody, human IgG1, V domains shown, also called chimeric 7C12) VH: EFQLQQSGPELEKPGASVRISCKTSGYSFTGYNMNWVKQSNGESLEWIGNIDPYYGATRYNQKFKGKATLTVDKSSSTAYMQLKSLTSEDSAVYYCARSYYGNAFDYWGQGTTLTVSS VL: DIVMTQSPSSLTVTAGEKVTMSCKSSQSLLNSGNQKNYLTWYQQKPGQPPKLLIYWASTRESGVPDRFTGSGSGTDFTLTISSVQAEDLAVYYCQNDYSFPFTFGSGTKLEIK
Value Units: %
Result Number: 74.7
--
Binder: 59A9-C (antibody, human IgG1, V domains shown, also called chimeric 59A9) VH: QITQKESGPGILQPSQTLSLTCSLSGFSLSTYFIGVGWIRQPSGKGLEWLAHIWWNDNKYYNTALKSRLTISKDTSNNQVFLKIASVDTADTATYYCARMGSGAWFTYWGQGTLVTVSA VL: DIVMTQSPSSLTVTAGEKVTMSCKSSQSLLNSGNQKNYLTWYQQKPGQPPKLLIYWASTRESGVPDRFTGSGSGTDFTLTISSVQAEDLAVYYCQNDYYYPLTFGSGTKLEIK
Value Units: %
Result Number: 87.5
--
Binder: 26G6-C (antibody, human IgG1, V domains shown, also called chimeric 26G6) VH: EFQLQQSGPELEKPGASVKISCKTSGYSFTGYNMNWVKQSNGQSLEWIGHIDPYYVTTTYNQKFRGKATLTVDKSSSTAYMQLKSLTSEDSAVYYCARSFYGNAFDYWGQGTTLTVSS VL: DIVMTQSPSSLTVTAGEKVTMSCKSSQSLFNSGNQKNYLTWYQQKPGQPPKLLIYWASTRESGVPDRFTGSGSGTDFTLTISSVQAEDLAVYYCQNDYSFPFTFGSGTKLEIK
Value Units: %
Result Number: 116

Then there is this binder:
Tell me the measured binding percentage vs wild-type CLDN18.2 of 11F12-C (antibody, human IgG1, V domains shown, also called chimeric 11F12) VH: EFQLQQSGPELEKPGASVRISCKTSGYSFTGYNMNWVKQSNGESLEWIGYIDPYYGGTRYNQKFKGKATLTVDKSSSTAYMQLKSLTSEDSAVYYCARSYYGNAFDYWGQGTTLTVSS VL: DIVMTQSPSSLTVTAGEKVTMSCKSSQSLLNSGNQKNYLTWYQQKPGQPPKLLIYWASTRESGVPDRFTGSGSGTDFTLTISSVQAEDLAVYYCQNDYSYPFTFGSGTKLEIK , please.
86.1
